SYSTEM: T1, Dimeric fibrinogen-like domain of human Ang-2 conjugated to human IgG1 (human)
T1 construct: also called Dimeric Human Ang-2FD; Human Ang-2FD-hFc
T1 sequence (chain, as listed by the source limits assumed): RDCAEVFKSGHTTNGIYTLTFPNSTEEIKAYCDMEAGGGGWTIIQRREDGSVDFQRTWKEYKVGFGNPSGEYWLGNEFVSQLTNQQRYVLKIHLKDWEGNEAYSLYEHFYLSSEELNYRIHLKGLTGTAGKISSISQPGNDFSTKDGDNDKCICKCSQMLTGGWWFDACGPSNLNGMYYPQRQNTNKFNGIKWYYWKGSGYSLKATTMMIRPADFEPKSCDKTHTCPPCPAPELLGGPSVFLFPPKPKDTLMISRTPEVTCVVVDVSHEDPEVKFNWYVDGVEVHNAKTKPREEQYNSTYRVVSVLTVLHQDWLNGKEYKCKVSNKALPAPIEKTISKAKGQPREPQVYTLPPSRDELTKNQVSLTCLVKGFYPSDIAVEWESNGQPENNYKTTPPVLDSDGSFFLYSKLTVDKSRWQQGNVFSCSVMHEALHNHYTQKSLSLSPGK
ASSAY_EXPLANATION: SPR, antibody captured, room temp
Define the label as T when T1/2 is strictly less than 40 min and as F in all remaining cases.

BINDER	CLASS_ASSIGNMENT
H2M750N (antibody, V domains shown) VH: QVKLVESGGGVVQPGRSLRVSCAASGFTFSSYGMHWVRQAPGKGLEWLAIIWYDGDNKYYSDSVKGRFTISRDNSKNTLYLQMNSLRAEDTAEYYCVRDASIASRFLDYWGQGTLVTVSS VL: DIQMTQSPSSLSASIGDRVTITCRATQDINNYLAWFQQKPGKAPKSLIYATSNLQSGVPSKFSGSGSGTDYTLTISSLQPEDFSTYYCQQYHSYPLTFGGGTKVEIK	T
H1M732N (antibody, V domains shown) VH: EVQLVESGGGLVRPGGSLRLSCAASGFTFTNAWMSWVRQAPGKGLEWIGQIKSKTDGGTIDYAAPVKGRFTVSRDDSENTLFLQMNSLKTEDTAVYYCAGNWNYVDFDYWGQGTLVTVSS VL: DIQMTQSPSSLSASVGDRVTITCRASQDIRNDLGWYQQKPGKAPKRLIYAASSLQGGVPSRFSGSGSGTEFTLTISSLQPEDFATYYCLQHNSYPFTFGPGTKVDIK	T
H2M730N (antibody, V domains shown) VH: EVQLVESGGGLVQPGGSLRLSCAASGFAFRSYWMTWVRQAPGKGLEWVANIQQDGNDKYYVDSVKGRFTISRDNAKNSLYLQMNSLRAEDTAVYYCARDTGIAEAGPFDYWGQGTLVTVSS VL: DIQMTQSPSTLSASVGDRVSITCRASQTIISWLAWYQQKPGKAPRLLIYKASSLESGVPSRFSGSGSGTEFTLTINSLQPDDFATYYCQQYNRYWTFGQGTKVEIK	F
H1M724N (antibody, V domains shown) VH: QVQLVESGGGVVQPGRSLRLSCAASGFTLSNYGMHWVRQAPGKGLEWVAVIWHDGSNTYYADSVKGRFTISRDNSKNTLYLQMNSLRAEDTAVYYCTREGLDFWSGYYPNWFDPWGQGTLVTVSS VL: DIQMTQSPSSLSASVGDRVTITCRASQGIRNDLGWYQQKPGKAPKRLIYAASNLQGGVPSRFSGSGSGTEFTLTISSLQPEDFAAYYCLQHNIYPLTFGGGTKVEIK	F
H2M744N (antibody, V domains shown) VH: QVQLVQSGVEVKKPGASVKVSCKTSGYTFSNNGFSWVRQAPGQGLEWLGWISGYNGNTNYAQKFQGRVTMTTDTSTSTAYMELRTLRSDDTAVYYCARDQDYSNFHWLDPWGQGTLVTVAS VL: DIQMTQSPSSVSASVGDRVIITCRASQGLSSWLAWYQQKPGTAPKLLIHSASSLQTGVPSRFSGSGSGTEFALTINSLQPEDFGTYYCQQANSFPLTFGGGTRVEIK	F
H2M749N (antibody, V domains shown, Hybridoma-derived chimeric antibody, mouse constant domains; also called H1M749N; H1M749) VH: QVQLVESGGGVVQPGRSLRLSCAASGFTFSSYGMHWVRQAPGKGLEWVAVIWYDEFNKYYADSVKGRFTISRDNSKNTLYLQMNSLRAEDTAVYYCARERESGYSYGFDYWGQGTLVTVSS VL: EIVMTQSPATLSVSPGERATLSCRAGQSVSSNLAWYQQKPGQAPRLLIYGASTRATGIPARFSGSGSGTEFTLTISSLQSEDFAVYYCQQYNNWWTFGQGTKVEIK	F

meta.source: patent US20150147342A1
